system: HCC-2998 colon; assay: NCI tumour cell line growth inhibition, 48 h
Examples of compounds with documented GI50 follow.
Quantity Kind: GI50

>  <Compound>
Oc1c(CN2CCC(N3CCCCC3)CC2)cc(Cc2cc(CN3CCC(N4CCCCC4)CC3)c(O)c3ncccc23)c2cccnc12

>  <Result>
1.19 µM

$$$$
>  <Compound>
COc1cc([N+](=O)[O-])cc2c3c(n(C)c12)[C@@]1(C)CCC2c4ccc(OCc5ccccc5)cc4CCC2C1C3 (some centres not stated)

>  <Result>
47.9 µM

$$$$
>  <Compound>
C=C1C(=O)O[C@H]2[C@H]1CC/C(Cn1cc(-c3ccc(OC)cc3)nn1)=C\CC[C@@]1(C)O[C@@H]21

>  <Result>
1.98 µM

$$$$
>  <Compound>
COC(=O)[C@]12CC[C@@H](C)[C@H](C)[C@@H]1C1=CC[C@@H]3[C@@]4(C)C/C(=N\O)[C@H](O)[C@@]5(C)COC(=C45)C[C@@]3(C)[C@]1(C)CC2

>  <Result>
11.5 µM

$$$$
>  <Compound>
[Cl-].[Dy+3].[O-]/N=C(\c1ccccc1)c1ccccn1.[O-]/N=C(\c1ccccc1)c1ccccn1.[O-]/N=C(\c1ccccc1)c1ccccn1

>  <Result>
27.6 µM

$$$$
>  <Compound>
N#Cc1ccc(NC(=O)Nc2ccc(Oc3ccc(NC(=O)Nc4ccc(C#N)cc4)cc3)cc2)cc1

>  <Result>
0.764 µM

$$$$
>  <Compound>
CCC[CH2][Sn]1([CH2]CCC)[O]Cc2nc(C)ccc2[O]1

>  <Result>
7.86 µM

$$$$

* * *

system: A498 renal; assay: NCI tumour cell line growth inhibition, 48 h
Quantity Kind: GI50

>  <Smiles String>
Nc1cc(N)c2nc(-c3ccccc3)c(Nc3ccc(Cl)c(Cl)c3)nc2c1

>  <Result>
12.1 µM

$$$$
>  <Smiles String>
CS(=O)(=O)c1ccc([C@H]2O[C@@H](CO)C[C@]2(O)c2ccc(S(C)(=O)=O)cc2)cc1

>  <Result>
> 100 µM

$$$$
>  <Smiles String>
CCOc1cc2c(Cl)ncnc2c(OCC)c1OCC

>  <Result>
6.48 µM

$$$$
>  <Smiles String>
COc1ccc(-c2cnnc3c(-c4cccc(C(F)(F)F)c4)cnn23)cc1

>  <Result>
3.52 µM

$$$$
>  <Smiles String>
CC[CH2][Sn]([CH2]CC)([O]C(=O)c1cccnc1SC)[O][Sn]([CH2]CC)([CH2]CC)[O]C(=O)c1cccnc1SC

>  <Result>
0.246 µM

$$$$
>  <Smiles String>
CC[C@]1(O)C[C@@H]2CN(CCc3c([nH]c4ccccc34)[C@@](C(=O)OC)(c3cc4c(cc3OC)N(C)[C@H]3[C@@](O)(C(=O)OC)[C@H](OC(C)=O)[C@]5(CC)C=CCN6CC[C@]43[C@@H]65)C2)C1

>  <Result>
< 0.01 µM

$$$$
>  <Smiles String>
O=c1[nH]ncc(Br)c1Br

>  <Result>
11.8 µM

$$$$
>  <Smiles String>
C=C1C(=O)O[C@H]2[C@H]1CC/C(COC(=O)c1ccc3ccccc3c1)=C\CC[C@@]1(C)O[C@@H]21

>  <Result>
1.88 µM

$$$$

* * *

tested on: TK-10 renal; assay: NCI tumour cell line growth inhibition, 48 h
Quantity Kind: TGI (µM)

>  <Compound>
C=C1CC(C)(c2ccc(Nc3nc4ccccc4c4occc34)cc2)OC1=O (stereo not given)

>  <Experimental System>
TK-10 renal

>  <Value Modifier>
=

>  <Quantitative Result>
16.7

$$$$
>  <Compound>
N#Cc1c(-c2ccc(F)cc2)nc(N/N=C/c2c[nH]c3ccccc23)nc1N1CCOCC1

>  <Experimental System>
TK-10 renal

>  <Value Modifier>
=

>  <Quantitative Result>
61

$$$$
>  <Compound>
O=c1[nH]ncc(Br)c1Br

>  <Experimental System>
TK-10 renal

>  <Value Modifier>
=

>  <Quantitative Result>
10.7

$$$$
>  <Compound>
C=CC(=O)N1CC2(CCN(c3nc(OC4CCN(CCCOC)CC4)nc4c(OCC(F)(F)F)c(-c5c(C)ccc6[nH]ncc56)c(C5CC5)cc34)CC2)C1

>  <Experimental System>
TK-10 renal

>  <Value Modifier>
=

>  <Quantitative Result>
14.3

$$$$
>  <Compound>
CNC(=O)N(CCC#N)[C@H]1CCCC[C@@H]1N(C(=O)NC)c1ccccc1

>  <Experimental System>
TK-10 renal

>  <Value Modifier>
>

>  <Quantitative Result>
100

$$$$
